target: 5-hydroxytryptamine receptor 1A (Homo sapiens); assay: Binding affinity to 5HT1A receptor (unknown origin)
Calls of active or inactive are those of the source. The rule behind the calls is not given here.
Measured Metric: Activity

>  <Compound>
CCOC(=O)[C@@H]1CN(CCn2c(=O)[nH]c3ccccc3c2=O)CC[C@@H]1c1ccc(C(F)(F)F)cc1 (racemic)

>  <Measured Metric>
Activity

>  <Result Value>
inactive

$$$$
>  <Compound>
CCOC(=O)[C@@H]1CN(CCn2c(=O)[nH]c3ccccc3c2=O)CC[C@@H]1c1ccc(N(C)C)cc1 (racemic)

>  <Measured Metric>
Activity

>  <Result Value>
inactive

$$$$
>  <Compound>
CCOC(=O)c1ccc([C@H]2CCN(CCn3c(=O)[nH]c4ccccc4c3=O)C[C@H]2C(=O)OCC)cc1 (racemic)

>  <Measured Metric>
Activity

>  <Result Value>
inactive

$$$$
>  <Compound>
CCOC(=O)C1CN(CCn2c(=O)[nH]c3ccccc3c2=O)CCC1c1ccc(F)cc1 (single isomer, unassigned; (-))

>  <Measured Metric>
Activity

>  <Result Value>
inactive

$$$$
>  <Compound>
CCOC(=O)[C@@H]1CN(CCn2c(=O)[nH]c3ccccc3c2=O)CC[C@@H]1c1cccc(C(F)(F)F)c1 (racemic)

>  <Measured Metric>
Activity

>  <Result Value>
inactive

$$$$
>  <Compound>
CCOC(=O)C1CN(CCn2c(=O)[nH]c3ccccc3c2=O)CCC1c1ccc(F)cc1 (single isomer, unassigned; (+))

>  <Measured Metric>
Activity

>  <Result Value>
inactive

$$$$
>  <Compound>
CCOC(=O)[C@@H]1CN(CCn2c(=O)[nH]c3ccccc3c2=O)CC[C@@H]1c1cccs1 (racemic)

>  <Measured Metric>
Activity

>  <Result Value>
inactive

$$$$
>  <Compound>
CCOC(=O)[C@@H]1CN(CCn2c(=O)[nH]c3ccccc3c2=O)CC[C@@H]1c1ccccc1 (racemic)

>  <Measured Metric>
Activity

>  <Result Value>
inactive

$$$$
>  <Compound>
CCOC(=O)[C@@H]1CN(CCn2c(=O)[nH]c3ccccc3c2=O)CC[C@@H]1c1ccc(F)cc1 (racemic)

>  <Measured Metric>
Activity

>  <Result Value>
inactive

$$$$
>  <Compound>
CCOC(=O)[C@@H]1CN(CCn2c(=O)[nH]c3ccccc3c2=O)CC[C@@H]1c1cccc2c1OCCO2 (racemic)

>  <Measured Metric>
Activity

>  <Result Value>
inactive

$$$$
>  <Compound>
CCOC(=O)[C@@H]1CN(CCn2c(=O)[nH]c3ccccc3c2=O)CC[C@H]1c1ccc(F)cc1 (racemic)

>  <Measured Metric>
Activity

>  <Result Value>
inactive

$$$$
>  <Compound>
CCOC(=O)[C@@H]1CN(CCn2c(=O)[nH]c3ccccc3c2=O)CC[C@@H]1c1ccc(C)cc1 (racemic)

>  <Measured Metric>
Activity

>  <Result Value>
inactive

$$$$
>  <Compound>
CCOC(=O)[C@@H]1CN(CCn2c(=O)[nH]c3ccccc3c2=O)CC[C@@H]1c1ccc(-c2ccccc2)cc1 (racemic)

>  <Measured Metric>
Activity

>  <Result Value>
inactive

$$$$
